Entry source: paper PMC10016662

# TARGET SYSTEM: HRTV Gc (Heartland virus)
# Construct: gene GP
# Sequence (J3WAX0 567-999 limits assumed): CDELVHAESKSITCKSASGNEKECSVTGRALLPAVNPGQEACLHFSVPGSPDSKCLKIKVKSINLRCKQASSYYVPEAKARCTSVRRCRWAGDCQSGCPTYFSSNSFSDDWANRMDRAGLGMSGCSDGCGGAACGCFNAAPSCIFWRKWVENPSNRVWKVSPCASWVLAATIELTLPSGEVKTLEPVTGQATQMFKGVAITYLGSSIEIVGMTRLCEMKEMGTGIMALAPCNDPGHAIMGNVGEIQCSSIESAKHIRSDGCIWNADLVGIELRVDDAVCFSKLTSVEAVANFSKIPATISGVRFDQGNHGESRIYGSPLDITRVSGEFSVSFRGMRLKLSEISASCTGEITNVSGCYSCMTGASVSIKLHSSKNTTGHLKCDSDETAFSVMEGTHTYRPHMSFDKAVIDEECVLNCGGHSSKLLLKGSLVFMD
# ASSAY SUMMARY: biochemical
# Assay type: binding
REPORTED PROPERTY: pKd
Note on pKd: it is the negative log10 of concentration, concentration in mol/L.

Provide the documented pKd with HRTV Gc (Heartland virus) as the system for CCCCCCCC/C=C\CCCCCCCC(=O)OC[C@H](COP(=O)([O-])OCC[N+](C)(C)C)OC(=O)CCCCCCC/C=C\CCCCCCCC [DOPC]
5.68
